- target of assay: T1, full-length hANGPTL4 (amino acid residues 26-406 of SEQ ID NO:476) with a C-terminal hexa-histidine tag (human, UniProt Q9BY76 26-406)
- T1 construct: also called hANGPTL4-His; hANGPTL4(26-406)-His
- T1 sequence: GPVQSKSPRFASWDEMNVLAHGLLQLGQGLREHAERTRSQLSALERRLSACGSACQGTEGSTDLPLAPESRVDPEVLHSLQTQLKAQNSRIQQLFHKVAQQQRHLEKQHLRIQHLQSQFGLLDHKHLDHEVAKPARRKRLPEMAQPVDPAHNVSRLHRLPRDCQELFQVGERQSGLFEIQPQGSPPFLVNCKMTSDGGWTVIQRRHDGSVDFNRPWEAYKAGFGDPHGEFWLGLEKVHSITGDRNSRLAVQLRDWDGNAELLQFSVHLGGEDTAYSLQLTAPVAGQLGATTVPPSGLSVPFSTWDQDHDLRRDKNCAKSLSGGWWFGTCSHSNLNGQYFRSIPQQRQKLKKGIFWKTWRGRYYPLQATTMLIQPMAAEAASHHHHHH
- assay info: SPR (Biacore), 25° C., pH 5.75, antigen amino-coupled 450 RU
reported property: t1/2 (min)
Enter your answer as a number in min; do not include the unit.

Examples with their reported t1/2 follow.
H1H284P (antibody, V domains shown, also called entire H1H284 mAb; Full mAb) VH: QVQLVESGGGVVQPGRSLRLSCAASGFTFSSYGMHWVRQAPGKGLEWMAVISFDGGNKNNADSVKGRFTISRDNSKNTLYLQMNSLRAEDTAVYYCAKEGDRSGHPYFYYYGLDVWGQGTTVTVS VL: DIQLTQSPSFLSASVGDRVTITCWASQGISSYLAWYQQKPGKAPKLLIYAASTLQSGVPSRFSGSGSETEFTLTISSLQPEDFATYYCQQLHSYPLTFGGGTKVEIK ... 42
H1H268P Fab fragment (Fab, V domains shown, Fab made by papain digestion of H1H268P (IgG1); also called H1H268 Fab) VH: QVQLQESGAGLLKPSETLSLTCTVYGGSFSIHHWTWIRHPPGKGLEWIGEINHRGSTNYNPSLKSRVTISIDTSKNQFSLKLSAVTAADTAVYYCARGLRFLDWLSSYFDYWGQGTLVTVSS VL: DIQMTQSPSSLSASVGDRVTITCRASQGISDYLAWYQQKPGKVPNLLIYAASALQSGVPSRFSGSGSGTDFTLTISSLQPEDVATYYCQNYNTAPLTFGGGTKVEIK ... 2
H1H268P (antibody, V domains shown, also called entire H1H268 mAb; Full mAb) VH: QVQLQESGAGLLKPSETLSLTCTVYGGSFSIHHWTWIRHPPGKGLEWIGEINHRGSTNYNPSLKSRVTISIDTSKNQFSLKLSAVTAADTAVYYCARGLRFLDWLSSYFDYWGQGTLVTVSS VL: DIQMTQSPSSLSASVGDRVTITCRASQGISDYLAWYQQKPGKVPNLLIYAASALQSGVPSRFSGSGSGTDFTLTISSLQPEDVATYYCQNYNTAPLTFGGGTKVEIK ... 26

Now turn to the next binder.
-- ask What does the data say about its t1/2? Entry: H1H284P Fab fragment (Fab, V domains shown, Fab made by papain digestion of H1H284P (IgG1); also called H1H284 Fab) VH: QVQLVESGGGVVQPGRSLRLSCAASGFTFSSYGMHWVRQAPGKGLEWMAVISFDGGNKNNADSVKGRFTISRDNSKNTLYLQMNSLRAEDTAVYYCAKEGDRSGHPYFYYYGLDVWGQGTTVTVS VL: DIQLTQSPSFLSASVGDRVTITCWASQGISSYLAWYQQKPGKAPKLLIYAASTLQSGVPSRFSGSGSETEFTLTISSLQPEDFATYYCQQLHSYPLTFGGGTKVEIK
-- reply 7
